Protocol Description: Cytotoxicity against CHO cells after 48 hrs by MTT assay
Type: cell-based, Cricetulus griseus
Protocol Conditions: chinese hamster
Experimental Endpoint: CC50 at 48 h (µg/mL)
Give bare numbers, in µg/mL.

Study these solved cases before continuing.
1) CC1(C)CCC[C@]2(C)[C@H]3CC[C@H]4C(=O)OC[C@H]4[C@]3(C=O)CC[C@@H]12 :: 13.2
2) CC(=O)OC[C@@H]1[C@H]2CC[C@@H]3[C@@]4(C)CCCC(C)(C)[C@@H]4CC[C@@]13COC2=O :: 21.5
3) CC(=O)O[C@H]1OC(=O)[C@@H]2CC[C@@H]3[C@@]4(C)CCCC(C)(C)[C@@H]4CC[C@@]3(C=O)[C@H]12 :: 4.96
4) CO[C@H]1CC[C@]2(C)[C@H]3CCc4cocc4[C@]3(C)CC[C@H]2[C@@H]1C :: 13.3

Okay, here is my list. What is CC50 at 48 h for each of these?
1. COC(=O)[C@@H]1CC[C@@H]2[C@@]3(C)CCCC(C)(C)[C@@H]3CC[C@]23C(O)OC[C@H]13 (some centres not stated)
2. CC1(C)CCC[C@]2(C)[C@H]3CC[C@H]4C(=O)OC5O[C@@H](O)[C@]3(CC[C@@H]12)[C@H]54 (some centres not stated)
3. CC[C@]1(O)C[C@H]2CN(CCc3c([nH]c4ccccc34)[C@@](C(=O)OC)(c3cc4c(cc3OC)N(C=O)[C@H]3[C@@](O)(C(=O)OC)[C@H](OC(C)=O)[C@]5(CC)C=CCN6CC[C@]43[C@@H]65)C2)C1

result:
[24.5, 5.1, 1.15]

====

Tested on: CHO
Protocol Description: Cytotoxicity against CHO cells after 48 hrs
Assay type: cell-based, Cricetulus griseus
Protocol Conditions: chinese hamster
Please enter 1 (yes) where CC100 is greater than or equal to 30 µg/mL, and 0 (no) where it is lower.

Here's what some known entries look like.
1) CC1(C)CCC[C@]2(C)[C@H]3CC[C@H]4C(=O)OC[C@H]4[C@]3(C=O)CC[C@@H]12 :: 0 (no)
2) CC1(C)CCC[C@]2(C)[C@H]3CC[C@H]4C(=O)OC5O[C@@H](O)[C@]3(CC[C@@H]12)[C@H]54 (some centres not stated) :: 0 (no)
3) CC(=O)O[C@H]1OC(=O)[C@@H]2CC[C@@H]3[C@@]4(C)CCCC(C)(C)[C@@H]4CC[C@@]3(C=O)[C@H]12 :: 0 (no)
4) CC(=O)OC[C@@H]1[C@H]2CC[C@@H]3[C@@]4(C)CCCC(C)(C)[C@@H]4CC[C@@]13COC2=O :: 1 (yes)

API: the following record is the query input.
query: Is reported CC100 greater than or equal to 30 µg/mL here: CO[C@H]1CC[C@]2(C)[C@H]3CCc4cocc4[C@]3(C)CC[C@H]2[C@@H]1C
result: 1 (yes)

====

System: HEp-2
Protocol Description: Cytotoxicity against human Hep2 cells after 48 hrs by MTT assay
Type: functional
Protocol Conditions: HEp-2, 48 h
Experimental Endpoint: log10(CC50) (log10 of the value in µg/mL)
Could you please treat all values as log10 of CC50 in µg/mL?

Consider the worked cases shown below.
1) CC[C@]1(O)C[C@H]2CN(CCc3c([nH]c4ccccc34)[C@@](C(=O)OC)(c3cc4c(cc3OC)N(C=O)[C@H]3[C@@](O)(C(=O)OC)[C@H](OC(C)=O)[C@]5(CC)C=CCN6CC[C@]43[C@@H]65)C2)C1 [VINCRISTINE] :: -1.30
2) CC(=O)O[C@H]1OC(=O)[C@@H]2CC[C@@H]3[C@@]4(C)CCCC(C)(C)[C@@H]4CC[C@@]3(C=O)[C@H]12 :: 0.65
3) COC(=O)[C@@H]1CC[C@@H]2[C@@]3(C)CCCC(C)(C)[C@@H]3CC[C@]23C(O)OC[C@H]13 (some centres not stated) :: 1.34
4) CC1(C)CCC[C@]2(C)[C@H]3CC[C@H]4C(=O)OC[C@H]4[C@]3(C=O)CC[C@@H]12 :: 0.98
5) CO[C@H]1CC[C@]2(C)[C@H]3CCc4cocc4[C@]3(C)CC[C@H]2[C@@H]1C :: 1.02
6) CC1(C)CCC[C@]2(C)[C@H]3CC[C@H]4C(=O)OC5O[C@@H](O)[C@]3(CC[C@@H]12)[C@H]54 (some centres not stated) [DENDRILLOL- 1] :: 0.54

Now for the compound whose log10(CC50) we want.
query: # lookup: log10(CC50) of CC(=O)OC[C@@H]1[C@H]2CC[C@@H]3[C@@]4(C)CCCC(C)(C)[C@@H]4CC[C@@]13COC2=O
result: 1.00
